# method_notes: Acute toxicity, oral administration (mice)
# Type: in vivo, ddY-strain male mice
# assay_context: mouse, in vivo, mortality up to 1 week
Listing of entries alongside the reported LD50 at 168 h.

Worked examples, 2 molecules total:
1) CC1(C(=O)Oc2ccc(C[C@H](N)C(=O)O)cc2O)CC1 = ≥ 6000 mg/kg
2) N[C@@H](Cc1ccc(O)c(O)c1)C(=O)O = 3200 mg/kg

Returns the measured LD50 at 168 h for the input molecule. Input: CC(C)(C)C(=O)Oc1ccc(C[C@H](N)C(=O)O)cc1O
≥ 6000 mg/kg

Reference source: patent US4966915A
